# credit: patent US12065436B2

# TARGET_DESC: bovine cardiac myofibrils (full-length cardiac myosin ATPase in the native sarcomere) (Bos taurus (Bovine), UniProt Q9BE39)
# Sequence (Q9BE39 whole entry): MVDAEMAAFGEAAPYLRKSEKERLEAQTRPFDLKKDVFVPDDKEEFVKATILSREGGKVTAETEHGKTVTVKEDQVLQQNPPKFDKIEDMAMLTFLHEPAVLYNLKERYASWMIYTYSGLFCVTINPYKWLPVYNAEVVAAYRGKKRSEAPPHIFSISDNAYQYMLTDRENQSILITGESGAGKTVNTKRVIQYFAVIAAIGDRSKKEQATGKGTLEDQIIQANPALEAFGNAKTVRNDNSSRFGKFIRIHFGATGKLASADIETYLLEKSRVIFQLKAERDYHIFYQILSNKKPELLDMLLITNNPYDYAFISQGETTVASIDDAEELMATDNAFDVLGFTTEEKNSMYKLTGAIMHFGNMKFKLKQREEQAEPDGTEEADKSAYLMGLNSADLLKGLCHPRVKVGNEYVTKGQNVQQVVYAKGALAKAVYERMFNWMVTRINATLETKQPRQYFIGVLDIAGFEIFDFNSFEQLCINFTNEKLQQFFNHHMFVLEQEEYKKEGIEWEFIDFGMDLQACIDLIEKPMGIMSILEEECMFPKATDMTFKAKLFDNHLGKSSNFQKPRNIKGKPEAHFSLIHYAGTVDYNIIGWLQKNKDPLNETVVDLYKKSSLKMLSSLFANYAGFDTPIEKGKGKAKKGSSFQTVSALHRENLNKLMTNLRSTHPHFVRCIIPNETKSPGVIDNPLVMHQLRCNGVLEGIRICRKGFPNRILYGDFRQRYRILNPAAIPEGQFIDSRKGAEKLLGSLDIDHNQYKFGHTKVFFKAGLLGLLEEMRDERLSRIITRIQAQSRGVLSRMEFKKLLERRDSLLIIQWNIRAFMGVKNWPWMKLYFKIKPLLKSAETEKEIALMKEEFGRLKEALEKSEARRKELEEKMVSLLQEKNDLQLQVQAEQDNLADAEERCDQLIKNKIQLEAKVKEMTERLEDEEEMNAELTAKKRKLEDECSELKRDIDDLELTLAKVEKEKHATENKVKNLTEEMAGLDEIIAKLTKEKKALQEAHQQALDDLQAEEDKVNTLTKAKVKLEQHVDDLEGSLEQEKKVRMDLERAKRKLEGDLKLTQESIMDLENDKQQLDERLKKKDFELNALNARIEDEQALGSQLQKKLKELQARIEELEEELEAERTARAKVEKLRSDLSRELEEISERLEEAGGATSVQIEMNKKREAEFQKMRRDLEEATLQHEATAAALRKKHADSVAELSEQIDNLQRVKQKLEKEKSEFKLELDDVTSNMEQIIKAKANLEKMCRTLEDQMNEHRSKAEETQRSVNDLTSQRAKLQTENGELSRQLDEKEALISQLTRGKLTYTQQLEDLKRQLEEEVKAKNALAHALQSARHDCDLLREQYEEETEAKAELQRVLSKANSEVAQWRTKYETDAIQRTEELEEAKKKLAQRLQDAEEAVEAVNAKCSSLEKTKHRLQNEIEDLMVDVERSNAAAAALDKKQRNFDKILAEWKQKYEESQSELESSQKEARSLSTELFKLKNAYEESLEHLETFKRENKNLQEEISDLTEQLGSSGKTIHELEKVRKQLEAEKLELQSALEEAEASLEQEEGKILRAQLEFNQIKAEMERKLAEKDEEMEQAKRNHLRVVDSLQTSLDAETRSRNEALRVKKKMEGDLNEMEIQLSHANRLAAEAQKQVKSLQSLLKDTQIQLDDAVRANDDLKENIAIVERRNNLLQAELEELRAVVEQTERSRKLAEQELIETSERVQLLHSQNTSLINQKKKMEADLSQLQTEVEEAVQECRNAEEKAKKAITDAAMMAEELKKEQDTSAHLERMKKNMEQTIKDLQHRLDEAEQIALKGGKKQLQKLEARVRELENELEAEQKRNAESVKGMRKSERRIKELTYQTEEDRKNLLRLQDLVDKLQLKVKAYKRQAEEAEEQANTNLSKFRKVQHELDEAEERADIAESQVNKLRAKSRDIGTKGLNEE
# Sequence (P85100 whole entry partner): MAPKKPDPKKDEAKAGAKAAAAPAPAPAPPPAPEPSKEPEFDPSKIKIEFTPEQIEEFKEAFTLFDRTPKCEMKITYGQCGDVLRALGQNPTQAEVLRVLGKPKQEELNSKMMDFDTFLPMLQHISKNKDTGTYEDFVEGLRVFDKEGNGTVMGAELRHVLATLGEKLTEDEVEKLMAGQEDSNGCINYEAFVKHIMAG
# Sequence (Q3SZE5 whole entry partner): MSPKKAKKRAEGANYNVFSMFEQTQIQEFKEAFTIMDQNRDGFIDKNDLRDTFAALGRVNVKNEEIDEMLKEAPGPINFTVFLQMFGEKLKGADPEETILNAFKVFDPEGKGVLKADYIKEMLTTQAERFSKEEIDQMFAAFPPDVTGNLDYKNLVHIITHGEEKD
# ASSAY_TEXT: Skinned bovine cardiac myofibril ATPase assay (PK/LDH-coupled)
# CONDITION_SUMMARY: Ca2+ activating to 75% of maximal rate, read-out: CDMF75 IC50
pIC50: −log10 of the molar value.
PROPERTY: pIC50

// known answers, use as guide
{"COMPOUND": "CC(C)c1nc(-c2ccc3c(c2)CC[C@H]3NC(=O)c2nnn(Cc3ccccc3)n2)no1", "QUANTITATIVE_READOUT": 5.19}
{"COMPOUND": "[2H]C([2H])([2H])c1nc(-c2ccc3c(c2)CC[C@H]3NC(=O)c2cnn(CCOC)c2)no1", "QUANTITATIVE_READOUT": 4.96}
{"COMPOUND": "Cc1cnoc1C(=O)N[C@@H]1CCc2cc(-c3noc(C4COC4)n3)ccc21", "QUANTITATIVE_READOUT": 5.00}
{"COMPOUND": "O=C(N[C@@H]1CCc2cc(-c3noc(C4CC4)n3)ccc21)OCC(F)F", "QUANTITATIVE_READOUT": 5.72}
{"COMPOUND": "CC(=O)c1nc(-c2ccc3c(c2)CC[C@H]3NC(=O)c2cnn(C)c2)no1", "QUANTITATIVE_READOUT": 4.88}
{"COMPOUND": "Cc1nn(C)cc1C(=O)NC1CCc2cc(-c3noc(C4CC4)n3)ccc21 (stereo not shown)", "QUANTITATIVE_READOUT": 5.60}
{"COMPOUND": "Cc1cc(-c2ccc3c(c2)CC[C@H]3NC(=O)c2cnc(C)o2)no1", "QUANTITATIVE_READOUT": 5.38}
{"COMPOUND": "CC(C)c1nc(-c2ccc3c(c2)CC[C@H]3NC(=O)c2cnn(CCO)c2)no1", "QUANTITATIVE_READOUT": 5.04}

1: COCc1nc(-c2ccc3c(c2)CC[C@H]3NC(=O)c2cnn(CCO)c2)no1
2: CCc1nc(-c2ccc3c(c2)OC[C@H]3NC(=O)c2cc(C)no2)no1
3: Cn1nnc(C(=O)N[C@@H]2COc3cc(-c4noc(C5CC5)n4)ccc32)n1
4: Cc1ncc(C(=O)N[C@@H]2CCc3cc(-c4noc(C5CC5)n4)ccc32)o1
Query: Order each entry by recorded pIC50, climbing from the minimum. // rank by listing labels in the order requested
Response: 1, 3, 4, 2
(1: 4.88, 3: 5.32, 4: 5.55, 2: 5.92)

I: Cc1nc(-c2ccc3c(c2)CC[C@H]3NC(=O)c2cccc([C@H](C)O)c2)no1
II: CCc1nc(-c2ccc3c(c2)CC[C@H]3NC(=O)c2cc(OC)no2)no1
Query: Hi, I'm comparing two records. Which one has the lower pIC50, I or II ? Reply briefly: the label of your chosen item.
Response: I

A: Cc1nc(-c2ccc3c(c2)OC[C@H]3NC(=O)c2cnn(C)c2C)no1
B: C=Cc1cc(C(=O)N[C@@H]2CCc3cc(-c4noc(CC)n4)ccc32)ccn1
Query: Which item exceeds the other in pIC50, A or B ? Write the label of whichever entry you select.
Response: B

1: CCc1nc(-c2ccc3c(c2)OCC3NC(=O)c2cnn(C)c2)no1 (stereo not shown)
2: [2H]C([2H])([2H])c1nc(-c2ccc3c(c2)CC[C@H]3NC(=O)c2cn(C)nc2C)no1
Query: Form: Entry with minimum pIC50 (choose one): 1 / 2 Choose, then provide that item's label.
Response: 2

a: Cn1nccc1C(=O)NC1COc2cc(-c3noc(C4CC4)n3)ccc21 (stereo not shown)
b: COCCn1cc(C(=O)N[C@@H]2CCc3cc(-c4noc(C)n4)ccc32)cn1
Query: Compare pIC50: is it lower for a or for b ? Write down the label attached to your selection.
Response: b

a: Cc1cc(C(=O)NC2CCc3cc(-c4noc(C(F)F)n4)ccc32)n(C)n1 (stereo not shown)
b: O=C(N[C@@H]1CCc2cc(-c3noc(C4CCC4)n3)ccc21)C(F)F
Query: Higher pIC50: a or b ? Return value: the label identifying the chosen record.
Response: a
